STUDY SYSTEM: mGluR5
EXPERIMENT SUMMARY: MGluR5 receptor binding test ([3H]-M-MPEP displacement)
DETAILS: radioligand [3H]-M-MPEP 2 nM; table does not say rat cortical membranes or hmGluR5a cells; read-out: mGlu5 Ki
Exercise: for every item that follows, state its recorded Ki.

• O=S(=O)(c1ccc(Cl)cc1)c1sc2nc(O)ccc2c1-c1ccc(Cl)cc1 = < 500 nM
• Cc1cccc(S(=O)(=O)c2sc3[nH]c(=O)ccc3c2-c2ccc(Cl)cc2)c1 = > 500 nM
• N#Cc1cccc(S(=O)(=O)c2sc3nc(O)ccc3c2-c2ccc(Cl)cc2)c1 = < 500 nM

We next turn to a different compound, shown below.
Any idea what Ki came out for O=C(OCc1ccc(F)cc1)c1sc2[nH]c(=O)ccc2c1-c1ccc(Cl)cc1 on mGluR5?
< 500 nM

Value source: patent US20090149495A1
